Target: SARS-CoV M^pro (Severe acute respiratory syndrome coronavirus, UniProt P0C6X7)
measurement.name: IC50 (µM)

compound	experimental.result
CC(C)(C)NC(=O)N[C@H](C(=O)N1C[C@H]2[C@@H]([C@H]1C(=O)NC(CC1CCC1)C(=O)C(N)=O)C2(C)C)C(C)(C)C (stereo partly shown)	6.63

* * *

Items are presented alongside their recorded EC50.
Tested on: HCoV-NL63
Assay: microbe, parasite or virus in culture
Type: cell-based
Conditions: Human coronavirus NL63, read-out: HCoV-NL63 (EC50, μM)
measurement.name: EC50 (µM)

compound	target.under.test	measurement.name	u	experimental.result
CC(C)(C)NC(=O)N[C@H](C(=O)N1C[C@H]2[C@@H]([C@H]1C(=O)NC(CC1CCC1)C(=O)C(N)=O)C2(C)C)C(C)(C)C (some centres unmarked) [boceprevir]	HCoV-NL63	EC50	µM	16.9
CCC(CC)COC(=O)[C@H](C)N[P@](=O)(OC[C@H]1O[C@@](C#N)(c2ccc3c(N)ncnn23)[C@H](O)[C@@H]1O)Oc1ccccc1 [remdesivir]	HCoV-NL63	EC50	µM	0.63
